Quick list: growth inhibition per entry.
Assay: OD615 S. cerevisiae growth inhibition, permissive medium, pilot counter-assay, permissive growth control for S. cerevisiae lifespan shortening project (AID 705)
Conditions: OD615, 24 h, at 10 µM, stronger effect = higher value
endpoint: growth inhibition (%)

[[record]]
compound = "Cc1cc(C)n2nc(SCC#N)nc2n1"
result = -7.25

[[record]]
compound = "CCOc1cccc(C(=O)Nc2nnc(-c3ccco3)s2)c1"
result = -7.86

[[record]]
compound = "c1csc(Cc2nc(-c3ccc(-n4cccc4)cc3)no2)c1"
result = -6.69

[[record]]
compound = "COc1cccc(NC=C2C(=O)OC3(CCCCC3)OC2=O)c1"
result = -8.74

[[record]]
compound = "COc1ccc(OC)c(C2NC(=O)NC(C)=C2C(=O)Nc2ccc(C)cc2C)c1 (stereo unspecified)"
result = -7.68

[[record]]
compound = "CCOC(=O)CN1CC23C=CC(O2)C(C(=O)N2CCN(c4ccc(F)cc4)CC2)C3C1=O (stereo unspecified)"
result = 7.71

[[record]]
compound = "O=C1c2ccccc2C(Nc2ccc3c(c2)OCCO3)N1Cc1ccccc1 (stereo unspecified)"
result = -4.61

[[record]]
compound = "O=S(=O)(NCC(c1cccnc1)N1CCN(c2ccc(F)cc2)CC1)c1ccc(F)cc1 (stereo unspecified)"
result = -0.55

[[record]]
compound = "CCOc1ccc(N(CC(=O)N2CC=C(c3ccccc3)CC2)S(=O)(=O)c2c(C)noc2C)cc1"
result = -3.46

[[record]]
compound = "COc1ccccc1CNc1ncnc2c1cnn2-c1ccccc1"
result = -13.5

[[record]]
compound = "CCCn1c(CN2CCCCC2CC)nc2c1c(=O)n(C)c(=O)n2C (stereo unspecified)"
result = -3.98


###

Test: RAM signaling pathway blockade in yeast – S. cerevisiae, Pdr1DBD-CYC8 efflux-inhibited sensitized strain, primary screen (AID 1298);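 further: 0% = DMSO untreated cells without growth and 100% = 10 µM 1-NA-PP1 full growth; higher means more yeast growth rescued from 5-FOA killing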
Settings: S. cerevisiae cbk1-as DSE1-URA3 strain, 5-FOA growth OD615, 2 d; at 50 µM; stronger effect = higher value
Label criterion met when RAM network inhibition is at or above 6%; otherwise label criterion not met.

[[record]]
compound = "COC(=O)C(C)n1cnc2c(nnn2-c2cccc(Cl)c2)c1=O (stereo unspecified)"
label = "criterion met"

[[record]]
compound = "CC1NC(=O)NC1CCCCC(=O)O (stereo unspecified)"
label = "criterion not met"

[[record]]
compound = "CC1(C)CC(=O)C=C(NCCc2ccc(S(N)(=O)=O)cc2)C1"
label = "criterion not met"

[[record]]
compound = "CCCC(=O)Nc1ccccc1-c1nnc(SC)[nH]c1=O"
label = "criterion not met"

[[record]]
compound = "CCN(CC)S(=O)(=O)c1cccc(-c2nnc(SCc3nnc(-c4cccs4)o3)n2N)c1"
label = "criterion not met"

[[record]]
compound = "COc1ccc(C2=NOC(C(=O)N3CCN(c4ccccc4OC)CC3)C2)cc1 (stereo unspecified)"
label = "criterion not met"

[[record]]
compound = "CCCCS(=O)CC(CS(=O)CCCC)OC(=O)c1ccccc1 (stereo unspecified)"
label = "criterion not met"

[[record]]
compound = "CCCOc1ccc(N2C(=O)CC(N3CCN(c4ccccc4F)CC3)C2=O)cc1 (stereo unspecified)"
label = "criterion met"

[[record]]
compound = "COc1ccccc1-c1nnc(SCC(=O)Nc2ccc(Cl)cc2Cl)o1"
label = "criterion met"

[[record]]
compound = "CCOC(=O)C1C(c2cccc(Cl)c2Cl)NC(=O)NC1(O)C(F)(F)F (stereo unspecified)"
label = "criterion met"

